Reference for the values: patent US20060084596A1

Entries annotated with measured IC50, PDGFR-Y-P
# Experimental system: platelet derived growth factor PDGF-BB (UniProt P01127 82-190)
# Sequence (P01127 82-190 limits assumed): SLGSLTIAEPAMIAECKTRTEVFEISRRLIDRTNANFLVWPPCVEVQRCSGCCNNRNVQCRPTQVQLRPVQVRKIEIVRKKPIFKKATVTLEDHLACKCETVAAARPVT
# Protocol notes: cell-based or functional assay
Positions of bridges follow the written chain, without caps; N, C: chain ends. No end group written: not given here.

ADGD (designed binder, linker N-C via 3‑aminomethyl‑5‑aminobenzamide; also: four loops on But-Calix calix[4]arene scaffold) [GFB-112] :: 29 µM

// next entry
Tell me the measured IC50, PDGFR-Y-P of GFB-135 (designed binder, also: 3 GDGY loops and 1 GDDD loop on But-Calix scaffold, linker to a chain's N/C-terminus via 3-aminomethyl-5-aminobenzamide) peptide 1: GDGY peptide 2: GDDD , please.
1.9 µM
